- Tested on: 935938-334-R-J1-PDC spheroids with HUVEC/MSC, viability
- TEST: Anticancer human tumor 935938-334-R-J1-PDC patient-derived small intestine adenocarcinoma cell line growth inhibition [PI3K]
- APPLIED CONDITIONS: second compound 0.0316 µM; first compound 1 µM; stronger effect = lower value
Below is a list of entries, each paired with its recorded viability, T/C value.
READOUT TYPE: viability, T/C

COMPOUND	MEAS VALUE
Cn1ncc(Cl)c1-c1cc(C(=O)NC(CN)Cc2cccc(F)c2)sc1Cl (stereo not given) + CC(Nc1ccc2c(c1)OCCn1cc(N3C(=O)OCC3C(F)F)nc1-2)C(N)=O	49.2%
CNC(=O)c1ccc(N2C(=S)N(c3ccc(C#N)c(C(F)(F)F)c3)C(=O)C2(C)C)cc1F + COc1c(OCCCN2CCOCC2)ccc2c3n(c(=NC(=O)c4cnc(N)nc4)nc12)CCN3	81%
C=CC(=O)N1CCN(c2nc(=O)n(-c3c(C)ccnc3C(C)C)c3nc(-c4c(O)cccc4F)c(F)cc23)C(C)C1 (stereo not given) + Cc1nc(NC(=O)N2CCCC2C(N)=O)sc1-c1ccnc(C(C)(C)C(F)(F)F)c1	98.7%
Cn1ncc(Cl)c1-c1cc(C(=O)NC(CN)Cc2cccc(F)c2)sc1Cl (stereo not given) + CC(Nc1ncnc2nc[nH]c12)c1cc2cccc(Cl)c2c(=O)n1-c1ccccc1	65.4%
C[C@@H](NC(=O)c1ncnc(N)c1Cl)c1ncc(C(=O)Nc2cc(C(F)(F)F)c(Cl)cn2)s1 + Cc1nc(NC(=O)N2CCCC2C(N)=O)sc1-c1ccnc(C(C)(C)C(F)(F)F)c1	88.1%

====

Below is a list of entries, each paired with its recorded viability, T/C value.
- Tested on: 935938-334-R-J1-PDC spheroids with HUVEC/MSC, viability
- TEST: Anticancer human tumor 935938-334-R-J1-PDC cell line growth inhibition [PI3K];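 further: compound exposure lasted seven days before viability was read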;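 on viability, T/C: percent of vehicle DMSO treated spheroid viability so 100% = untreated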
- APPLIED CONDITIONS: second compound 0.316 µM; first compound 1 µM; stronger effect = lower value
READOUT TYPE: viability, T/C (%)

MOLECULE	READOUT TYPE	UNITS LABEL	MEAS VALUE
CNC(=O)c1ccc(N2C(=S)N(c3ccc(C#N)c(C(F)(F)F)c3)C(=O)C2(C)C)cc1F + CC(Nc1ncnc2nc[nH]c12)c1cc2cccc(Cl)c2c(=O)n1-c1ccccc1	viability, T/C	%	83.6
C=CC(=O)N1CCN(c2nc(=O)n(-c3c(C)ccnc3C(C)C)c3nc(-c4c(O)cccc4F)c(F)cc23)C(C)C1 (stereo not drawn) + CC(Nc1ccc2c(c1)OCCn1cc(N3C(=O)OCC3C(F)F)nc1-2)C(N)=O	viability, T/C	%	74.2
C=CC(=O)N1CCN(c2nc(=O)n(-c3c(C)ccnc3C(C)C)c3nc(-c4c(O)cccc4F)c(F)cc23)C(C)C1 (stereo not drawn) + CC(Nc1ncnc2nc[nH]c12)c1cc2cccc(Cl)c2c(=O)n1-c1ccccc1	viability, T/C	%	95.7

====

- Test system: 935938-334-R-J1-PDC spheroids with HUVEC/MSC, viability
- TEST: Anticancer human tumor 935938-334-R-J1-PDC cell line growth inhibition [PI3K];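 further: compound exposure lasted seven days before viability was read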
- APPLIED CONDITIONS: curve of first compound; second compound 1 µM
Below is a list of entries, each paired with its recorded IC50 value.
READOUT TYPE: IC50 (nM)

MOLECULE	SYSTEM UNDER TEST	READOUT TYPE	RELATION SIGN	MEAS VALUE
Cn1nccc1Nc1nccc(-c2ccn(C(CO)c3ccc(Cl)c(F)c3)c(=O)c2)n1 (stereo unspecified) + Cc1nc(NC(=O)N2CCCC2C(N)=O)sc1-c1ccnc(C(C)(C)C(F)(F)F)c1	935938-334-R-J1-PDC spheroids with HUVEC/MSC, viability	IC50	=	211
C[C@@H](NC(=O)c1ncnc(N)c1Cl)c1ncc(C(=O)Nc2cc(C(F)(F)F)c(Cl)cn2)s1 + CC(Nc1ncnc2nc[nH]c12)c1cc2cccc(Cl)c2c(=O)n1-c1ccccc1	935938-334-R-J1-PDC spheroids with HUVEC/MSC, viability	IC50	>	10000
Cn1ncnc1[C@H]1c2n[nH]c(=O)c3cc(F)cc(c23)N[C@@H]1c1ccc(F)cc1 + CC(Nc1ccc2c(c1)OCCn1cc(N3C(=O)OCC3C(F)F)nc1-2)C(N)=O	935938-334-R-J1-PDC spheroids with HUVEC/MSC, viability	IC50	=	10
CC(Cn1ccc(-c2ccc(C#N)c(Cl)c2)n1)NC(=O)c1cc(C(C)O)[nH]n1 (stereo unspecified) + CC(Nc1ccc2c(c1)OCCn1cc(N3C(=O)OCC3C(F)F)nc1-2)C(N)=O	935938-334-R-J1-PDC spheroids with HUVEC/MSC, viability	IC50	=	4180
CCN1CCN(Cc2ccc(Nc3ncc(F)c(-c4cc(F)c5nc(C)n(C(C)C)c5c4)n3)nc2)CC1 + CC(Nc1ncnc2nc[nH]c12)c1cc2cccc(Cl)c2c(=O)n1-c1ccccc1	935938-334-R-J1-PDC spheroids with HUVEC/MSC, viability	IC50	=	215
Cn1ncc(Cl)c1-c1cc(C(=O)NC(CN)Cc2cccc(F)c2)sc1Cl (stereo unspecified) + CC(Nc1ccc2c(c1)OCCn1cc(N3C(=O)OCC3C(F)F)nc1-2)C(N)=O	935938-334-R-J1-PDC spheroids with HUVEC/MSC, viability	IC50	<	31.6

====

- Test system: 935938-334-R-J1-PDC spheroids with HUVEC/MSC, viability
- TEST: Anticancer human tumor 935938-334-R-J1-PDC cell line growth inhibition [PI3K];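 further: compound exposure lasted seven days before viability was read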;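 on viability, T/C: percent of vehicle DMSO treated spheroid viability so 100% = untreated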
- APPLIED CONDITIONS: second compound 0.01 µM; first compound 10 µM; stronger effect = lower value
Binarize viability, T/C at 30%; below is condition met, at or above is condition not met.

COMPOUND	DISCRETE LABEL
C[C@@H](NC(=O)c1ncnc(N)c1Cl)c1ncc(C(=O)Nc2cc(C(F)(F)F)c(Cl)cn2)s1 + CC(Nc1ccc2c(c1)OCCn1cc(N3C(=O)OCC3C(F)F)nc1-2)C(N)=O	condition not met
CC1(C)CCC(Nc2ncc(C(F)(F)F)c(-c3c[nH]c4c(P(C)(C)=O)c(C#N)ccc34)n2)CN1 (stereo unspecified) + CC(Nc1ccc2c(c1)OCCn1cc(N3C(=O)OCC3C(F)F)nc1-2)C(N)=O	condition met
Cn1nccc1Nc1nccc(-c2ccn(C(CO)c3ccc(Cl)c(F)c3)c(=O)c2)n1 (stereo unspecified) + COc1c(OCCCN2CCOCC2)ccc2c3n(c(=NC(=O)c4cnc(N)nc4)nc12)CCN3	condition met
CCCS(=O)(=O)Nc1ccc(F)c(C(=O)c2c[nH]c3ncc(-c4ccc(Cl)cc4)cc23)c1F + COc1c(OCCCN2CCOCC2)ccc2c3n(c(=NC(=O)c4cnc(N)nc4)nc12)CCN3	condition met
CC(C)NCC(C(=O)N1CCN(c2ncnc3c2C(C)CC3O)CC1)c1ccc(Cl)cc1 (stereo unspecified) + CC(Nc1ccc2c(c1)OCCn1cc(N3C(=O)OCC3C(F)F)nc1-2)C(N)=O	condition met
CC(C)NCC(C(=O)N1CCN(c2ncnc3c2C(C)CC3O)CC1)c1ccc(Cl)cc1 (stereo unspecified) + COc1c(OCCCN2CCOCC2)ccc2c3n(c(=NC(=O)c4cnc(N)nc4)nc12)CCN3	condition not met
CC1(C)CCC(CN2CCN(c3ccc(C(=O)NS(=O)(=O)c4ccc(NCC5CCOCC5)c([N+](=O)[O-])c4)c(Oc4cnc5[nH]ccc5c4)c3)CC2)=C(c2ccc(Cl)cc2)C1 + COc1c(OCCCN2CCOCC2)ccc2c3n(c(=NC(=O)c4cnc(N)nc4)nc12)CCN3	condition not met
Cn1ncc(Cl)c1-c1cc(C(=O)NC(CN)Cc2cccc(F)c2)sc1Cl (stereo unspecified) + COc1c(OCCCN2CCOCC2)ccc2c3n(c(=NC(=O)c4cnc(N)nc4)nc12)CCN3	condition met
Cn1nccc1Nc1nccc(-c2ccn(C(CO)c3ccc(Cl)c(F)c3)c(=O)c2)n1 (stereo unspecified) + CC(Nc1ccc2c(c1)OCCn1cc(N3C(=O)OCC3C(F)F)nc1-2)C(N)=O	condition not met
CCCS(=O)(=O)Nc1ccc(F)c(C(=O)c2c[nH]c3ncc(-c4ccc(Cl)cc4)cc23)c1F + CC(Nc1ccc2c(c1)OCCn1cc(N3C(=O)OCC3C(F)F)nc1-2)C(N)=O	condition met
C[C@@H](NC(=O)c1ncnc(N)c1Cl)c1ncc(C(=O)Nc2cc(C(F)(F)F)c(Cl)cn2)s1 + COc1c(OCCCN2CCOCC2)ccc2c3n(c(=NC(=O)c4cnc(N)nc4)nc12)CCN3	condition not met

====

- System: 935938-334-R-J1-PDC spheroids with HUVEC/MSC, viability
- TEST: Anticancer human tumor 935938-334-R-J1-PDC cell line growth inhibition [PI3K];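 further: compound exposure lasted seven days before viability was read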
- APPLIED CONDITIONS: curve of first compound; second compound 1 µM
Below is a list of entries, each paired with its recorded IC50 value.
READOUT TYPE: IC50 (nM)

COMPOUND	READOUT TYPE	RELATION SIGN	MEAS VALUE
CC(Cn1ccc(-c2ccc(C#N)c(Cl)c2)n1)NC(=O)c1cc(C(C)O)[nH]n1 (stereo unspecified) + CC(Nc1ncnc2nc[nH]c12)c1cc2cccc(Cl)c2c(=O)n1-c1ccccc1	IC50	>	10000
CC(Cn1ccc(-c2ccc(C#N)c(Cl)c2)n1)NC(=O)c1cc(C(C)O)[nH]n1 (stereo unspecified) + COc1c(OCCCN2CCOCC2)ccc2c3n(c(=NC(=O)c4cnc(N)nc4)nc12)CCN3	IC50	<	31.6
C=CC(=O)N1CCN(c2nc(=O)n(-c3c(C)ccnc3C(C)C)c3nc(-c4c(O)cccc4F)c(F)cc23)C(C)C1 (stereo unspecified) + Cc1nc(NC(=O)N2CCCC2C(N)=O)sc1-c1ccnc(C(C)(C)C(F)(F)F)c1	IC50	>	10000
Cn1ncc(Cl)c1-c1cc(C(=O)NC(CN)Cc2cccc(F)c2)sc1Cl (stereo unspecified) + Cc1nc(NC(=O)N2CCCC2C(N)=O)sc1-c1ccnc(C(C)(C)C(F)(F)F)c1	IC50	=	266
Cn1cnc2c(F)c(Nc3ccc(Br)cc3Cl)c(C(=O)NOCCO)cc21 + Cc1nc(NC(=O)N2CCCC2C(N)=O)sc1-c1ccnc(C(C)(C)C(F)(F)F)c1	IC50	=	11.6
C#Cc1c(F)ccc2cc(O)cc(-c3ncc4c(N5CC6CCC(C5)N6)nc(OCC56CCCN5CC(F)C6)nc4c3F)c12 (stereo unspecified) + CC(Nc1ccc2c(c1)OCCn1cc(N3C(=O)OCC3C(F)F)nc1-2)C(N)=O	IC50	=	102

These measurements were taken from PubChem BioAssay AID1963966.
